System: SNB-19
Assay: Growth inhibition of human SNB19 cells incubated for 48 hrs by sulforhodamine B assay
Format: functional
Details: SNB-19, 48 h
Result type: GI50 (µM)
Kindly provide the numeric value in µM only, without the unit symbol.

Reference set (4 entries):
>>> endpoint_result("C=C1CC[C@@H]2[C@](C)(COC(C)=O)[C@H](OC(C)=O)CC[C@@]2(C)[C@H]1CC(Nc1ccc(S(=O)(=O)Nc2ccc(Cl)nn2)cc1)C1=CCOC1=O (stereo not given in full)")
1.91
>>> endpoint_result("C=C1CC[C@@H]2[C@](C)(COC(C)=O)[C@H](OC(C)=O)CC[C@@]2(C)[C@H]1CC(Nc1ccc(S(=O)(=O)Nc2nccs2)cc1)C1=CCOC1=O (stereo not given in full)")
4.36
>>> endpoint_result("C=C1CC[C@@H]2[C@](C)(COC(C)=O)[C@H](OC(C)=O)CC[C@@]2(C)[C@H]1CC(Nc1ccc(S(=O)(=O)Nc2cc(C)on2)cc1)C1=CCOC1=O (stereo not given in full)")
3.12
>>> endpoint_result("C=C1CC[C@@H]2[C@](C)(COC(C)=O)[C@H](OC(C)=O)CC[C@@]2(C)[C@H]1CC(Nc1ccc(S(=O)(=O)Nc2ncccn2)cc1)C1=CCOC1=O (stereo not given in full)")
1.63

Alright, here's another compound for you.
Task: Which measured GI50 value corresponds to C=C1CC[C@@H]2[C@](C)(COC(C)=O)[C@H](OC(C)=O)CC[C@@]2(C)[C@H]1CC(Nc1ccc(S(=O)(=O)Nc2nccc(C)n2)cc1)C1=CCOC1=O (stereo not given in full) ?
Output: 6.3
